Tested on: SK-OV-3
Assay: NCI tumour cell line growth inhibition, 48 h
Calls of active or inactive are those of the source. Rule as the data show it: active = GI50 up to about 1.1 µM and inactive = higher.
# reported GI50; entries follow

Example molecules with recorded GI50:
molecule	target	GI50
C[N+](C)([O-])CCOc1cc2c(c3ccccc13)-c1ccccc1C2=O	SK-OV-3	35.4 µM (inactive)
Nc1n[c-](N)[n+](=O)c(N)c1NCO	SK-OV-3	> 100 µM (inactive)
O=C(NNC(=S)NC1CCCCC1)c1csc(NC(=S)NC2CCCCC2)n1	SK-OV-3	11.7 µM (inactive)

Q: // map CCOC(=O)C(C(=O)OCC)=c1sc(=C(C(=O)OCC)C(=O)OCC)s1 to recorded GI50 (system: SK-OV-3)
Result: > 100 µM (inactive)

Q: And O=C1C(Br)=CC2(C=C1Br)CCNC1=C2C(=O)c2ccccc2C1=O ?
Result: 30.4 µM (inactive)

Q: And COC(=O)C(Cc1c(C2Nc3ccccc3C2CC(NC(=O)CNC(C)=O)C(=O)OC)[nH]c2ccccc12)NC(=O)CNC(C)=O (stereo not given) ?
Result: > 100 µM (inactive)

Q: And CC12OC1(C)C1C(=O)OCC1C2=O (stereo not given) ?
Result: > 100 µM (inactive)

Q: And COCC1N=C(c2cc(OC)c(OC)c(OC)c2-c2cc3c(cc2C2OCCCO2)OCO3)O[C@H]1c1ccccc1 (stereo not given in full) ?
Result: > 100 µM (inactive)

Q: And O=C(CCc1nnc2s/c(=C\c3ccc(Cl)cc3Cl)c(=O)n12)Nc1cc(Cl)c(Cl)cc1Cl ?
Result: > 10 µM (inactive)

Q: And Oc1cc(F)cc2cccnc12 ?
Result: 4.45 µM (inactive)
